- Target: Aurora A (Homo sapiens)
- Construct: cell lysates from Jurkat cells (ATCC TIB-152) used; endogenous in cells
- Sequence (O14965 whole entry): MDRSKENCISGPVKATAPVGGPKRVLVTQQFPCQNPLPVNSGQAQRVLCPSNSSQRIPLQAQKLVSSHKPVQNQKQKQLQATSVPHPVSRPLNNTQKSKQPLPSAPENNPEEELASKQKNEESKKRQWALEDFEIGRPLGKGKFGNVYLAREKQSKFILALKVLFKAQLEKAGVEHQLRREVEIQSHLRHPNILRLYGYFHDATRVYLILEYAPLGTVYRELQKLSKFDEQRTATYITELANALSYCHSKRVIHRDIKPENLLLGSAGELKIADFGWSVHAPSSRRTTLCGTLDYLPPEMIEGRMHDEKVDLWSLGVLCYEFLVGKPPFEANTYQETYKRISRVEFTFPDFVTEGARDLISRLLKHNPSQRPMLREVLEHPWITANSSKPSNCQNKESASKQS
- Assay Procedure: Kinobeads assay, Aurora A
- Cond: lysate of pervanadate-treated Jurkat cells, read-out: Inhibition values (IC50) Aur A
pIC50: −log10 of the molar value.
Recorded Endpoint: pIC50

Worked examples, 3 molecules total:
{"columns": ["Molecule", "Target", "pIC50"],
 "data": [
  ["Cn1cc(Nc2ncc3cnn(Cc4cccc(N5CCNCC5=O)c4)c3n2)cn1 [Example 36]", "Aurora A (Homo sapiens)", "6.00 to 7.00"],
  ["Cn1cc(Nc2ncc3cnn(Cc4cc(N5CCNCC5=O)cc(F)c4F)c3n2)cn1 [Example 71]", "Aurora A (Homo sapiens)", "6.00 to 7.00"],
  ["CN(C)CCCn1cc(Nc2ncc3cnn(Cc4c(F)c(F)cc(N5CCOCC5)c4F)c3n2)cn1 [Example 42]", "Aurora A (Homo sapiens)", "5.00 to 6.00"]
]}

Go through the items and report each one's pIC50.
1. Cn1cc(Nc2ncc3cnn(Cc4cccc(-c5cn[nH]c5)c4)c3n2)cn1 [Example 118]
2. O=C(c1cccc(Cn2ncc3cnc(Nc4cnn(CCO)c4)nc32)c1F)N1CCOCC1 [Example 85]
3. OCCn1cc(Nc2ncc3cnn(Cc4cc(N5CCOCC5)ccc4F)c3n2)cn1 [Example 44]
4. CNCC1(Cn2cc(Nc3ncc4cnn(Cc5cccc(N6CCOCC6)c5)c4n3)cn2)COC1 [Example 41]
5. Cn1cc(Nc2ncc3cnn(Cc4cccc(N5CCOCC5=O)c4)c3n2)cn1 [Example 27]

1. 5.00 to 6.00
2. 6.00 to 7.00
3. 6.00 to 7.00
4. 5.00 to 6.00
5. 6.00 to 7.00

====

- Target: Aurora B (Homo sapiens, UniProt Q96GD4)
- Construct: cell lysates from Jurkat cells (ATCC TIB-152) used; endogenous in cells
- Sequence (Q96GD4 whole entry): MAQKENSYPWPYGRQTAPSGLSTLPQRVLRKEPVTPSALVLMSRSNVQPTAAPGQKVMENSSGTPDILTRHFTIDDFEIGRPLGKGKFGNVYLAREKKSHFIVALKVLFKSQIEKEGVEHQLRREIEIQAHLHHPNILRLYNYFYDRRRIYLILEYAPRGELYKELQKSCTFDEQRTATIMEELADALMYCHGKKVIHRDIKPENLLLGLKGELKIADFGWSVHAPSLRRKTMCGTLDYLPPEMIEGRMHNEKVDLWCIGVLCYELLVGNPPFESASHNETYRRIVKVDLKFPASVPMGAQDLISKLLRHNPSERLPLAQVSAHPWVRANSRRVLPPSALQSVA
- Assay Procedure: Kinobeads assay, Aurora B
- Cond: lysate of pervanadate-treated Jurkat cells, read-out: Inhibition values (IC50) Aur B
Could you please report measured IC50 for the items listed next?

Worked examples, 2 molecules total:
{"columns": ["Molecule", "Recorded Endpoint", "Result"],
 "data": [
  ["Cn1cc(Nc2ncc3cnn(Cc4cccc(N5CCOCC5=O)c4F)c3n2)cn1", "IC50", "0.1 to 1 µM"],
  ["CN1CCN(c2cccc(Cn3ncc4cnc(Nc5cnn(C)c5)nc43)c2)CC1", "IC50", "0.1 to 1 µM"]
]}

Go through the items and report each one's IC50.
1. O=C1COCCN1c1cc(F)cc(Cn2ncc3cnc(Nc4cnn(CC5CCNC5)c4)nc32)c1 (centres unmarked)
2. OCCCn1cc(Nc2ncc3cnn(Cc4cccc(N5CCOCC5)c4)c3n2)cn1

1: 0.1 to 1 µM; 2: 0.1 to 1 µM

====

Could you please report measured JAK3/AurB Fold Selectivity for the items listed next?
- Target: Aurora B (Homo sapiens)
- Construct: cell lysates from Jurkat cells (ATCC TIB-152) used; endogenous in cells; host or cells: Jurkat cells (ATCC TIB-152), treated with pervanadate
- Assay Procedure: Kinobeads assay, Aurora B
- Type: binding

{"columns": ["Molecule", "JAK3/AurB Fold Selectivity"],
 "data": [
  ["Cn1cc(-c2cc(F)c(F)c(Cn3ncc4cnc(Nc5cnn(CCO)c5)nc43)c2)cn1", "10-50 Fold"]
]}

Go through the items and report each one's JAK3/AurB Fold Selectivity.
1. OCCn1cc(Nc2ncc3cnn(Cc4cccc(N5CCOCC5)c4F)c3n2)cn1
2. COC1CCN(c2cccc(Cn3ncc4cnc(Nc5cnn(C)c5)nc43)c2)CC1
3. O=C1COCCN1c1cccc(Cn2ncc3cnc(Nc4cnn(CCO)c4)nc32)c1F
4. Cn1cc(Nc2ncc3cnn(Cc4c(F)c(F)cc(N5CCOCC5)c4F)c3n2)cn1
5. Cn1cc(Nc2ncc3cnn(Cc4cc(N5CCOCC5=O)cc(F)c4F)c3n2)cn1
6. Cn1cc(Nc2ncc3cnn(Cc4cccc(-c5cnn(CC(N)=O)c5)c4)c3n2)cn1

10-50 Fold
3-10 Fold
10-50 Fold
10-50 Fold
>50 Fold
>50 Fold
